Molecular target: T1, human Ang-2 (human, UniProt O15123)
T1 chain: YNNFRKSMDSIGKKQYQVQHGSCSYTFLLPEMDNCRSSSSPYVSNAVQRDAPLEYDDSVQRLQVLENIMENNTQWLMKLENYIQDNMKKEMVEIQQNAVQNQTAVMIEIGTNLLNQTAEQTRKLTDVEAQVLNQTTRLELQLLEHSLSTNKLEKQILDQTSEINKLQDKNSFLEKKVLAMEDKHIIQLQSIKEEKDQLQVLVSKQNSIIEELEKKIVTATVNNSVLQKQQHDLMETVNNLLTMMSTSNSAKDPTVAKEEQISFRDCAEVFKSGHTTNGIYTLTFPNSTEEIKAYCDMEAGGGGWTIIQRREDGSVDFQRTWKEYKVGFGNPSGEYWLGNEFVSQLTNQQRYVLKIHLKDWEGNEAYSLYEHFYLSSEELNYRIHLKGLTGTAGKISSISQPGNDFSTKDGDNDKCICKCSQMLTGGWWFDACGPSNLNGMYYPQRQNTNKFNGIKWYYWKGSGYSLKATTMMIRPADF
Experiment: competition ELISA vs Tie-2
pIC50: −log10 of the molar value. Primed or numbered codes have the meaning given here. Where no end group is shown, it is not given here. [ ]: non-standard residue; d: D form. Fc(4) = non-antigen-binding fragment of an antibody (from proteolytic digestion of a whole antibody); Fc(7) = Fc domain, peptide fused N- or C-terminal to it
Reported metric: pIC50

- M[Fc(7)]GGGGGAQAVGSQTCEWDPWTCAHLVEVLE (not fully specified (bridges); cysteine pairing not given here) [Con4-16 (C)]: 8.16
- M[Fc(4)]GGGGGAQTTIGSMCQWDPWTCAHMQGGLE (not fully specified (bridges); cysteine pairing not given here) [Con4-C2 (C)]: 8.43
